Data origin, for the record: PubChem BioAssay (NCI)

Each entry below carries its reported TGI.
System: SN12C renal
Assay: NCI tumour cell line growth inhibition, 48 h

> print(dat)
                                   compound  quantity.name  experimental.value
1  O=C1/C(=C/c2ccc(Cl)cc2Cl)CN(S(=O)(=O)c2ccccc2)C/C1=C\c1ccc(Cl)cc1Cl            TGI              1.1 µM
2         COc1ccc(/C=C/c2cc(OC)cc(OC)c2)cc1            TGI           > 45.4 µM
3           CN(C)CCN(C)CCC(=O)/C=C/c1ccccc1            TGI             48.5 µM
4  Cn1c(CCC2(C)Cc3ccccc3C(=O)O2)cc2ccccc2c1=O (stereo not drawn)            TGI            > 100 µM
5  Cc1ccc(C2CC(c3cccc(Nc4ccncc4)c3)=NN2c2cc(Cl)cc(Cl)c2)cc1 (stereo not drawn)            TGI             3.24 µM
6  N#Cc1cc2c(cc1Cl)SC(=Nc1ccccc1)N(S(=O)(=O)c1ccc(Cl)cc1)S2(=O)=O            TGI             37.1 µM

Entry C=C[C@]1(C)CC(O)C2C(=C)C(=O)OC2[C@H]1C(=C)C=O (stereo partly drawn) needs its TGI filled in; supply it.
5.88 µM

Entry `COC(=O)c1ccc2[nH]c(O)c(C(=Nc3ccc(N(C)C(=O)CN4CCN(C)CC4)cc3)c3cccc(OC)c3)c2c1` needs its TGI filled in; supply it.
10.8 µM

###

Test system: HL-60(TB) leukemia
Assay: NCI tumour cell line growth inhibition, 48 h
Each entry below carries its reported TGI.

Guide cases for TGI, answers given:
> print(dat)
                                   compound  experimental.value
1  COc1ccc(C2Oc3ccc(O)cc3[C@@H]2C)cc1OC (some centres undefined)            > 100 µM
2  COC(=O)c1oc2c(C(C)=O)c(OCCN3CCOCC3)c(OC)cc2c1C            > 100 µM
3  C=C1C(=O)O[C@@H]2C[C@@H]3[C@]4(CC[C@]5(C)[C@@H]([C@H](C)CC/C=C(\C)C=O)CC[C@@]35C)C[C@]4(CCC(=O)OC)[C@H]12             1.29 µM

Jot down TGI (HL-60(TB) leukemia) of `CC(=O)/C(N=Nc1ccc(-n2c(C)nc3ccccc3c2=O)cc1)=C(/C)O` .
> 100 µM

Jot down TGI (HL-60(TB) leukemia) of CC(C)[C@@H](C)CC[C@@H](C)C1CC=C2[C@@H]3CCC4C[C@@H](O[Si](C)(C)C(C)(C)C)CC[C@]4(C)C3CC[C@@]21C (some centres undefined) .
> 100 µM

Jot down TGI (HL-60(TB) leukemia) of `CC(=O)Oc1ccc2c3c1[C@H]1O[C@H]1c1cccc(c1-3)[C@@H]1O[C@H]21` .
6.61 µM

Jot down TGI (HL-60(TB) leukemia) of `COc1cc2c[n+](C)c3c4cc(OC)c(OC)cc4c(OCCCCCCCCOc4cc5c6cc(OC)c(OC)cc6c[n+](C)c5c5cc(OC)c(OC)cc45)cc3c2cc1OC` .
> 100 µM

Jot down TGI (HL-60(TB) leukemia) of `CCOP(=O)(OCC)/C(=C\n1c(=S)[nH]c2cc(C)ccc21)C(=O)OC` .
> 100 µM

Jot down TGI (HL-60(TB) leukemia) of `c1ccc(-c2n(Cc3ccc4ccccc4n3)cc[n+]2Cc2ccc3ccccc3n2)cc1` .
1.7 µM

Jot down TGI (HL-60(TB) leukemia) of `CC(=O)COC(=O)CC(C)=O` .
> 100 µM
